# System: human platelet thromboxane production (cyclooxygenase pathway)
# measurement description: Human platelet thromboxane (TXB2) formation from [14C]-arachidonic acid, TLC
# Type: cell-based
# run conditions: Platelet; human platelets; exogenous arachidonic acid, calcium ionophore A23187; mean ± S.E.M.; 6-11 donors; read-out: Inhibitory Potency (I50)
quantity: pIC50
# log scale: pIC50 equals minus log10 of the concentration in mol/L

Note to self: pIC50 recorded for CCCCC/C=C\C=C\CCCCCCCCC(=O)O [10,12-18:2, 10,12-octadecadienoic acid] was 4.89

Note to self: pIC50 recorded for CCCCC/C=C\C=C\C(O)CCCCCCCC(=O)O (stereo not shown) [9-HODE] was 4.47

Note to self: pIC50 recorded for CCCCCC/C=C/C=C\CCCCCCCC(=O)O [9,11-18:2, 9,11-octadecadienoic acid] was 4.80

Note to self: pIC50 recorded for CCCCC[C@H](O)/C=C/C=C\CCCCCCCC(=O)O [13-HODE] was 5.52
